I'd appreciate it if you could supply pKi values for the items below.
- system-under-test: Cathepsin L (UniProt P07711 114-333)
- Sequence (P07711 114-333 limits assumed): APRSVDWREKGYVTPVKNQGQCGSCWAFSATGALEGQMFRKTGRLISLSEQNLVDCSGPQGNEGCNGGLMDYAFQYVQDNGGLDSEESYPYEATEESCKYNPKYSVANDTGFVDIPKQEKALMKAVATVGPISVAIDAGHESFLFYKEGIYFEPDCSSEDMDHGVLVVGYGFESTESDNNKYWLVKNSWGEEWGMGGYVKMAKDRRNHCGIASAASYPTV
- protocol-summary: fluorescence-based enzyme inhibition assay
Positions of bridges follow the written chain, without caps; N, C: chain ends. No end group written: not given here. alpha,alpha'‑meta‑xylylene = alpha,alpha'-meta-xylylene linker (from a,a'-dibromo-meta-xylene) bridging two cysteines via bis-thioether
Give bare numbers, as −log10 of the molar value.

Please state pKi for every binder in the list that follows.
1. IPPKXCELLC (Cys6 and Cys10 (i,i+4) linked by alpha,alpha'-meta-xylylene; residue 5 OBn-Y = O-benzyltyrosine) [IPPK(OBn-Y)CELLC (SEQ ID NO:83)]
2. LPPKYCELLC (linker 6-10 via alpha,alpha'‑meta‑xylylene) [LPPKYCELLC (SEQ ID NO:74)]
3. LFKREVTIPPKYCELLC (linker 13-17 via alpha,alpha'‑meta‑xylylene, 17 amino acids) [LFKREVTIPPKYCELLC (SEQ ID NO:68)]
4. IPPKACELLC (linker 6-10 via alpha,alpha'‑meta‑xylylene) [IPPKACELLC (SEQ ID NO:81)]

Result:
1. 4.78
2. 4.42
3. 4.97
4. 5.09

Report pKi for every entry below.
1. IPPKYCEQLC (linker 6-10 via alpha,alpha'‑meta‑xylylene, also called compound (Ia)) [IPPKYCEQLC (SEQ ID NO:85)]
2. IPPKYCEALC (linker 6-10 via alpha,alpha'‑meta‑xylylene) [IPPKYCEALC (SEQ ID NO:86)]
3. EVTIPPKYCELLC (linker 9-13 via alpha,alpha'‑meta‑xylylene) [EVTIPPKYCELLC (SEQ ID NO:69)]
4. IPPKYCELLC (linker 6-10 via alpha,alpha'‑meta‑xylylene) [IPPKYCELLC (SEQ ID NO:65)]
5. IPPKYRCLLAC (linker 7-11 via alpha,alpha'‑meta‑xylylene) [IPPKYRCLLAC (SEQ ID NO:66)]

Result:
1. 4.18
2. 4.67
3. 4.16
4. 4.40
5. 5.29

Hey, quick one: what's pKi for each of these?
1. IPPKYCALLC (linker 6-10 via alpha,alpha'‑meta‑xylylene) [IPPKYCALLC (SEQ ID NO:84)]
2. IPPAYCELLC (linker 6-10 via alpha,alpha'‑meta‑xylylene) [IPPAYCELLC (SEQ ID NO:78)]
3. IPPRWCELLC (linker 6-10 via alpha,alpha'‑meta‑xylylene) [IPPRWCELLC (SEQ ID NO:91)]
4. IPPRYCELLC (linker 6-10 via alpha,alpha'‑meta‑xylylene) [IPPRYCELLC (SEQ ID NO:80)]
5. APPKYCELLC (linker 6-10 via alpha,alpha'‑meta‑xylylene) [APPKYCELLC (SEQ ID NO:72)]

Result:
[4.90, 4.61, 5.06, 4.42, 4.90]
